B1: F1*; the commonest letter at each place (parent)
chain: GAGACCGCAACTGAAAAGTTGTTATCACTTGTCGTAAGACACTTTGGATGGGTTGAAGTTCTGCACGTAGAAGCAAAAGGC

Variants of: B1
Assay: fraction ligated after 30 min (ligated reads / total reads); higher = more ligase activity
Settings: with F1*sub RNA substrate (template-directed ligation), 42 °C
# if value of fraction ligated reaches 0.8, tag yes (1); if it stays below, tag no (0)

residues	labelValue
GAGACCGCAACTGAAAAGTTGTTACCACTTATCGTAAGACACTTTGGATGGGTTGAAGTTCTGCACGTAGAAGCAAAAGGC	no (0)
GAGACCGCAACTGAAAAGTTGTTATCACTAGTCGTAAGACAGTTTGGATGGGTTGAAGTTCTGCACGTAGAAGCAAAAGGC	yes (1)
GAGACCGCAACTGAAAAGTTGTTATCACCTGTCGTTAGACACTTTGGATGGGTTGAAGTTCTGCACGTAGAAGCAAAAGGC	yes (1)
GAGACCGCAACTGAAAAGTTGTTAACACTTGTCGTAAGACACTTCGGATGGGTTGAAGTTCTGCACGTAGAAGCAAAAGGC	no (0)

Continue with the variant presented below.
fraction ligated >= 0.8 for `GAGACCGCAACTGAAAAGTTGTTATCACTTGGCGTAAGACACTTTGGATTGGTTGAAGTTCTGCACGTAGAAGCAAAAGGC` ?
no (0)

Cited source for all entries: the supplement of paper PMC6755084
